test system: K-562; assay: Cell proliferation inhibition (CellTiter-Glo), K-562 cells; type: cell-based; settings: Homo sapiens, K562, 168 h; K-562 (BCR-ABL), Day 7; read-out: K-562 IC50 μM (Day 7)*
I'd appreciate it if you could supply IC50 values for the items below.
One number for each entry, in µM.

Solved cases below.
• C=CC(=O)N1CCCC(N2CC[C@@H](C(=O)Nc3ccc(-c4cc5c(N6CCOCC6)ncnc5[nH]4)cc3)C2)C1 (stereo partly shown) = 3.65
• C=CC(=O)N[C@H]1CCN(c2cccc(C(C)(C)C(=O)Nc3ccc(-c4cc5c(N6CCOCC6)ncnc5[nH]4)cc3)c2)C1 = 4.86
• C=CC(=O)N[C@@H]1CCCN(Cc2ccnc(C(=O)Nc3ccc(-c4cc5c(N6CCOCC6)nccc5[nH]4)cc3)c2)C1 = 0.186

Now take the following compound into account.
Query (compound): C=CC(=O)N[C@H]1CCN(c2cccc(CC(=O)Nc3ccc(-c4cc5c(N6CCOCC6)ncnc5[nH]4)cc3)c2)C1 ; field requested: IC50
10.1

###

system: MOLM-13; experiment: Cell proliferation inhibition (CellTiter-Glo), MOLM-13 cells; assay type: cell-based; conditions: Homo sapiens, 168 h; MOLM-13 (MLL-AF9), Day 7; read-out: MOLM-13 Day IC50 μM (Day 7)*
MEASUREMENT_NAME: IC50 (µM)
Give bare numbers, in µM.

- C=CC(=O)N1CCCC(N2CC[C@@H](C(=O)Nc3ccc(-c4cc5c(N6CCOCC6)ncnc5[nH]4)cc3)C2)C1 (stereo partly shown): 0.164
- C=CC(=O)N1CCC(N2CCN(S(=O)(=O)Nc3ccc(-c4cc5c(N6CCOCC6)ncnc5[nH]4)cc3)CC2)CC1: 2.39
- C=CC(=O)N1CCCC(N2CCC(S(=O)(=O)Nc3ccc(-c4cc5c(N6CCOCC6)ncnc5[nH]4)cc3)C2)C1 (stereo not shown): 0.834
- C=CC(=O)N[C@@H]1CCCN(Cc2ccnc(C(C)Nc3ccc(-c4cc5c(N6CCOCC6)ncnc5[nH]4)cc3)c2)C1 (stereo partly shown): 0.546
- C=CC(=O)N[C@@H]1CCCN(Cc2ccnc(C(=O)Nc3ccc(-c4cc5c(N6CCOCC6)nccc5[nH]4)cc3)c2)C1: 0.523
- C=CC(=O)N[C@@H]1CCCN(Cc2ccnc(C(=O)Nc3ccc(-c4cc5c(N6CCC(C)(O)CC6)ncnc5[nH]4)cc3)c2)C1: 1.07
- C=CC(=O)N1CCC(N2CCN(C(=O)Nc3ccc(-c4cc5c(N6CCOCC6)ncnc5[nH]4)cc3)CC2)CC1: 0.477
- C=CC(=O)N[C@H]1CCN(c2cccc(C(C)(C)C(=O)Nc3ccc(-c4cc5c(N6CCOCC6)ncnc5[nH]4)cc3)c2)C1: 0.51

Please report IC50 for every entry that follows.
1. C=CC(=O)N1CCC(Nc2ccnc(C(=O)Nc3ccc(-c4cc5c(N6CCOCC6)ncnc5[nH]4)cc3)c2)CC1
2. C=CC(=O)N[C@@H]1CCC[C@H](Nc2ccnc(C(=O)Nc3ccc(-c4cc5c(N6CCOCC6)ncnc5[nH]4)cc3)c2)C1
3. C=CC(=O)N1CCC(N2CCC(S(=O)(=O)Nc3ccc(-c4cc5c(N6CCOCC6)ncnc5[nH]4)cc3)CC2)CC1
4. C=CC(=O)N[C@@H]1CCCN(Cc2ccnc(C(=O)Nc3ccc(-c4cc5c(N6CCC(O)CC6)ncnc5[nH]4)cc3)c2)C1
5. C=CC(=O)N[C@H]1CCN(c2cccc(CC(=O)Nc3ccc(-c4cc5c(N6CCOCC6)ncnc5[nH]4)cc3)c2)C1

[0.157, 0.349, 0.458, 0.924, 1.47]

###

system: U-937; assay: Cell proliferation inhibition (CellTiter-Glo), U-937 cells; format: cell-based; conditions: Homo sapiens, 168 h; U-937 (MLL-wt), 7 d, Table 3; read-out: U-937 IC50 μM 7 d
MEASUREMENT_NAME: IC50 (µM)
One number for each entry, in µM.

* C=CC(=O)N1CCCC(Nc2ccnc(C(=O)Nc3ccc(-c4cc5c(N6CCOCC6)ncnc5[nH]4)cc3)c2)C1 (stereo not shown) | 0.037

Now take the following compound into account.
Item: C=CC(=O)N1CC(N2CCC(NC(=O)Nc3ccc(-c4cc5c(N6CCOCC6)ncnc5[nH]4)cc3)CC2)C1 Test system: U-937 Read-out: IC50 Value: ?
1.05

###

tested on: U-937; assay: Cell proliferation inhibition (CellTiter-Glo), U-937 cells; format: cell-based; settings: Homo sapiens, 96 h; U-937 (MLL-wt), 4 d, Table 3; read-out: U-937 IC50 μM 4 d
MEASUREMENT_NAME: IC50

- C=CC(=O)N[C@@H]1CCCN(Cc2ccnc(C(=O)NC3CCN(c4nc5c(N6CCOCC6)ncnc5[nH]4)CC3)c2)C1: > 5 µM
- C=CC(=O)Nc1ccc(CC(=O)Nc2ccc(-c3cc4c(C)ncnc4[nH]3)cc2)cc1: > 5 µM

Please report IC50 for every entry that follows.
1. C=CC(=O)Nc1ccc(CC(=O)Nc2ccc(-c3cc4c(N5CCOCC5)ncnc4[nH]3)cc2)nc1
2. C=CC(=O)N1CC(N2CCC(CC(=O)Nc3ccc(-c4cc5c(N6CCOCC6)ncnc5[nH]4)cc3)CC2)C1
3. C=CC(=O)N(C)[C@@H]1CCCN(Cc2ccnc(C(=O)Nc3ccc(-c4cc5c(N6CCOCC6)ncnc5[nH]4)cc3)c2)C1

1: 0.288 µM; 2: 0.347 µM; 3: 0.105 µM

###

tested on: K-562; test: Cell proliferation inhibition (CellTiter-Glo), K-562 cells; type: cell-based; conditions: Homo sapiens, K562, 96 h; K-562 (BCR-ABL), Day 4; read-out: K-562 IC50 μM (Day 4)
Quick rule for you: IC50 under 0.7 µM gets 1, anything else gets -1.

- C=CC(=O)N1CCCC(N2CC[C@@H](C(=O)Nc3ccc(-c4cc5c(N6CCOCC6)ncnc5[nH]4)cc3)C2)C1 (stereo partly drawn): -1
- C=CC(=O)N[C@H]1CCCN(Cc2ccnc(C(=O)Nc3ccc(-c4cc5c(N6CCOCC6)ncnc5[nH]4)cc3)c2)C1: -1
- C=CC(=O)N[C@@H]1CCCN(Cc2ccnc(C(=O)Nc3ccc(-c4cc5c(N6CCOCC6)nccc5[nH]4)cc3)c2)C1: 1
- C=CC(=O)NC1CN(c2ccnc(NC3CC4(CCN(c5nc6c(N7CCOCC7)ncnc6[nH]5)CC4)C3)c2)C1: -1

Record C=CC(=O)N1CCC(Nc2ccnc(C(=O)Nc3ccc(-c4cc5c(N6CCOCC6)ncnc5[nH]4)cc3)c2)CC1 : is its IC50 strictly below 0.7 µM?
-1

Record CCN(C/C=C/C(=O)N[C@@H]1CCCN(Cc2ccnc(C(=O)Nc3ccc(-c4cc5c(N6CCOCC6)ncnc5[nH]4)cc3)c2)C1)C1CC1 : is its IC50 strictly below 0.7 µM?
-1

###

Test system: K-562
Test: Cell proliferation inhibition (CellTiter-Glo), K-562 cells
Assay type: cell-based
Conditions: Homo sapiens, K562, 96 h; K-562 (BCR-ABL), Day 4; read-out: K-562 IC50 μM (Day 4)
Source text: The present example evaluates the ability of compounds described herein, inhibitors of Menin/MLL interaction, to inhibit cell proliferation. The proliferation inhibitory effect was investigated in human MLL-leukemia cells selected on the bases of MLL fusion proteins and listed in the table below. […] Cell proliferation inhibition was monitored at both the following end points: Day 4 (T4) and Day 7 (T7). […]
I'd appreciate it if you could supply IC50 values for the items below.

Solved cases below.
* C=CC(=O)N[C@H]1CCN(c2cccc(CC(=O)Nc3ccc(-c4cc5c(N6CCOCC6)ncnc5[nH]4)cc3)c2)C1 | 8.83 µM
* C=CC(=O)N[C@@H]1CCCN(Cc2cccc(S(=O)(=O)Nc3ccc(-c4nc5c(N6CCOCC6)ncnc5s4)nc3)c2)C1 | > 10 µM
* C=CC(=O)N1CCC(N2CCN(S(=O)(=O)Nc3ccc(-c4cc5c(N6CCOCC6)ncnc5[nH]4)cc3)CC2)CC1 | > 10 µM
* C=CC(=O)N[C@H]1CCN(c2cccc(CS(=O)(=O)Nc3ccc(-c4cc5c(N6CCOCC6)ncnc5[nH]4)cc3)c2)C1 | 8.31 µM

Please report IC50 for every entry that follows.
1. C=CC(=O)N[C@@H]1CCC[C@H](Nc2ccnc(C(=O)Nc3ccc(-c4cc5c(N6CCOCC6)ncnc5[nH]4)cc3)c2)C1
2. C=CC(=O)N[C@@H]1CCCN(Cc2ccnc(C(=O)Nc3ccc(-c4cc5c(C6CCOCC6)ncnc5[nH]4)cc3)c2)C1
3. C=CC(=O)N[C@H]1CCN(c2cccc(CS(=O)(=O)NC3CCN(c4nc5c(N6CCOCC6)ncnc5s4)CC3)c2)C1
4. C=CC(=O)N[C@@H]1CCCN(c2cccc([C@H](C)S(=O)(=O)Nc3ccc(-c4cc5c(N6CCOCC6)ncnc5[nH]4)cc3)c2)C1
5. C=CC(=O)N[C@H]1CCN(c2cccc(CS(=O)(=O)Nc3ccc(-c4cc5c(N6CCOCC6)ncnc5[nH]4)cn3)c2)C1
6. C=CC(=O)N[C@H]1CCN(c2cccc(C(C)S(=O)(=O)Nc3ccc(-c4cc5c(N6CCOCC6)ncnc5[nH]4)cc3)c2)C1 (stereo partly drawn)

["2.96 µM", "4.34 µM", "> 10 µM", "> 10 µM", "> 10 µM", "9.07 µM"]

Please report IC50 for every entry that follows.
1. C=CC(=O)N[C@@H]1CCCN(Cc2ccnc(C(=O)NC3CC=C(c4cc5c(N6CCOCC6)ncnc5[nH]4)CC3)c2)C1 (stereo partly drawn)
2. C/C=C/S(=O)(=O)N[C@@H]1CCCN(Cc2ccnc(C(=O)Nc3ccc(-c4cc5c(N6CCOCC6)ncnc5[nH]4)cc3)c2)C1

1. 2.89 µM
2. > 10 µM
